System: HEK-293T
Assay: Multiplex assay against HEK293T
Type: toxicity, cell-based
Settings: human, 12 h, 1 µM, compound concentration 1 uM, replicate 2
Mark 1 for reported Population Tubulin-Different-Phenotype (%) of 20% or greater; mark -1 for anything smaller.

compound: Cc1ccc(F)cc1C(=O)Nc1ccc(C(=O)N2Cc3cccn3Cc3ccccc32)c(Cl)c1 [LIXIVAPTAN]
cat: 1
//
compound: Cc1ccc(/C(=C\CN2CCCC2)c2ccccn2)cc1 [TRIPROLIDINE]
cat: -1
//
compound: O=C(NCCO)c1cccc(-c2cc(Nc3ccc(OC(F)(F)F)cc3)ncn2)c1
cat: -1
//
compound: COc1c(C)cc(NC(=O)c2nn(Cc3ccc(F)cc3)c3c2CN(C(=O)c2ccc[nH]2)C[C@]3(C)C(N)=O)cc1C
cat: 1
//
compound: CN1CCN(c2nc3cc(C(F)(F)F)ccc3n3cccc23)CC1.O=C(O)/C=C\C(=O)O.O=C(O)/C=C\C(=O)O
cat: 1
//
compound: COc1ccc2c(c1)C(C(=O)N(Cc1ccc(N(C)C)cc1)c1ccc(C(C)C)cc1)CCC2.Cl (stereo not drawn)
cat: 1
//
compound: CN(C)CCCc1cc(C(=O)Nc2ccc(-c3ccncc3)cc2)ccc1O.Cl.Cl
cat: -1
//
compound: C[C@@H]1C[C@H]2[C@@H]3CCC4=CC(=O)C=C[C@]4(C)[C@@]3(F)[C@@H](O)C[C@]2(C)[C@@]1(O)C(=O)CO [DEXAMETHASONE]
cat: 1

###

Test system: HEK-293T
Experiment: Multiplex assay against HEK293T
Type: toxicity, cell-based
Conditions: human, 24 h, 1 µM, compound concentration 1 uM, replicate 1

compound: Cc1ccccc1C(=O)Nc1ccc(C(=O)N2CCCC(N(C)C)c3ccccc32)cc1.Cl (configuration not stated)
measurement.unit: %
Population Apoptotic (%): 31

compound: COc1c(C)cc(NC(=O)c2nn(Cc3ccc(F)cc3)c3c2CN(C(=O)c2ccc[nH]2)C[C@]3(C)C(N)=O)cc1C
measurement.unit: %
Population Apoptotic (%): 21

compound: Cc1ccc(-c2ccc(F)cc2COc2ccc(CCC(=O)O)cc2)cc1
measurement.unit: %
Population Apoptotic (%): 16

compound: Cc1ccc(F)cc1C(=O)Nc1ccc(C(=O)N2Cc3cccn3Cc3ccccc32)c(Cl)c1 [LIXIVAPTAN]
measurement.unit: %
Population Apoptotic (%): 30

compound: CC1(COc2ccc3c(c2)ncn3-c2ccc3cccc(N4CCC(N)CC4)c3n2)COC1 [CRENOLANIB]
measurement.unit: %
Population Apoptotic (%): 29

compound: COc1cc(C(=O)N(CCCc2ccccc2)Cc2ccc(CC(=O)O)cc2)cc(OC)c1C
measurement.unit: %
Population Apoptotic (%): 32

compound: CC[C@H]1OC(=O)[C@H](C)[C@@H](O[C@H]2C[C@@](C)(OC)[C@@H](O)[C@H](C)O2)[C@H](C)[C@@H](O[C@@H]2O[C@H](C)C[C@H](N(C)C)[C@H]2O)[C@@]2(C)CC(C)=C(O2)[C@H](C)[C@@H](O)[C@]1(C)O
measurement.unit: %
Population Apoptotic (%): 20

###

Each entry below lists one item and its recorded Population Normal (%) value.
System: HEK-293T
Assay: Multiplex assay against HEK293T
Format: toxicity, cell-based
Conditions: human, 48 h, 10 µM, compound concentration 10 uM, replicate 1
measurement.type: Population Normal (%)

molecule: COc1cc(NC(=O)CCN2CCC(OC(=O)Nc3ccccc3-c3ccccc3)CC2)c(Cl)cc1CNC[C@H](O)c1ccc(O)c2[nH]c(=O)ccc12 [BATEFENTEROL]
numeric.result: 92
--
molecule: Oc1c(CN2CCN(c3ccccn3)CC2)cc(Cl)c2cccnc12
numeric.result: 74
--
molecule: C[C@H]1[C@H]2CC[C@H]3[C@@H]4CC=C5C[C@@H](N(C)C)CC[C@]5(C)[C@H]4CC[C@]23CN1C [CONESSINE]
numeric.result: 95
--
molecule: N#Cc1c(N)nc(SCc2csc(-c3ccc(Cl)cc3)n2)c(C#N)c1-c1ccc(OCCO)cc1 [CAPADENOSON]
numeric.result: 87
--
molecule: O=C(O)Cc1ccccc1Nc1c(Cl)cccc1Cl [DICLOFENAC]
numeric.result: 96
--
molecule: CN1CCN(c2nc3cc(C(F)(F)F)ccc3n3cccc23)CC1.O=C(O)/C=C\C(=O)O.O=C(O)/C=C\C(=O)O
numeric.result: 89
--
molecule: CC(=O)NCCc1c(Cc2ccccc2)[nH]c2ccccc12 [LUZINDOLE]
numeric.result: 90
--
molecule: CC(C)(C)c1ccc(S(=O)(=O)Nc2ccc(Cl)cc2C(=O)c2cc[n+]([O-])cc2)cc1 [VERCIRNON]
numeric.result: 96
--
molecule: CCCn1c(=O)c2[nH]c(C3CCCC3)nc2n(CCC)c1=O
numeric.result: 96
--
molecule: Cc1ccccc1C(=O)Nc1ccc(C(=O)N2CCCC(N(C)C)c3ccccc32)cc1.Cl (stereo unspecified)
numeric.result: 93
--
molecule: CN(C)c1ccnc2sc3c(=O)n(N4CCCCCC4)cnc3c12
numeric.result: 91
--
molecule: O=C(O)c1cc2ccccc2c(Cc2c(O)c(C(=O)O)cc3ccccc23)c1O [PAMOIC ACID]
numeric.result: 96
--
molecule: O=S(=O)(c1ccccc1)c1cnc2c(N3CCNCC3)cccc2c1 [INTEPIRDINE]
numeric.result: 95
--
molecule: CCNC1(C(N)=O)CCN(c2ncnc3c2nc(-c2ccccc2Cl)n3-c2ccc(Cl)cc2)CC1 [OTENABANT]
numeric.result: 83
--
molecule: CC1(COc2ccc3c(c2)ncn3-c2ccc3cccc(N4CCC(N)CC4)c3n2)COC1 [CRENOLANIB]
numeric.result: 59
--
molecule: O=C1COc2nccc(-c3ccccc3F)c2CN1Cc1cc(C(F)(F)F)cc(C(F)(F)F)c1
numeric.result: 96
--
molecule: COc1cc(C(=O)N(CCCc2ccccc2)Cc2ccc(CC(=O)O)cc2)cc(OC)c1C
numeric.result: 95
--
molecule: CN(C)CCCc1cc(C(=O)Nc2ccc(-c3ccncc3)cc2)ccc1O.Cl.Cl
numeric.result: 94
--
molecule: Cc1ccc(-c2ccc(F)cc2COc2ccc(CCC(=O)O)cc2)cc1
numeric.result: 97
--
molecule: C[C@H](NC(=O)c1c(C(F)F)nn(C)c1Oc1cccc(C(F)(F)F)c1)c1ccc(C(=O)O)cc1 [PALUPIPRANT]
numeric.result: 98
--
molecule: C[C@@H]1C[C@H]2[C@@H]3CCC4=CC(=O)C=C[C@]4(C)[C@@]3(F)[C@@H](O)C[C@]2(C)[C@@]1(O)C(=O)CO [DEXAMETHASONE]
numeric.result: 96
--
molecule: CCCN1CCC[C@@H]2Cc3n[nH]cc3C[C@H]21.Cl [QUINPIROLE HYDROCHLORIDE]
numeric.result: 97
--
molecule: O=C(NCCO)c1cccc(-c2cc(Nc3ccc(OC(F)(F)F)cc3)ncn2)c1
numeric.result: 91
--
molecule: COc1ccccc1N1CCN(CCCCNC(=O)c2ccc3ccccc3c2)CC1.Cl
numeric.result: 91
--
molecule: c1cc(OCCCN2CCCCC2)ccc1CN1CCCCC1 [JNJ-5207852]
numeric.result: 91
--
molecule: CNC[C@H](O)c1ccc(O)c(O)c1 [EPINEPHRINE]
numeric.result: 96
--
molecule: O=C(NCC(=O)N1CC[C@H](N[C@H]2CC[C@@](O)(c3ccc(-c4ncccn4)cn3)CC2)C1)c1cccc(C(F)(F)F)c1 [PF-4136309]
numeric.result: 94
--
molecule: CN1CCN2c3ncccc3Cc3ccccc3C2C1 (stereo unspecified) [MIRTAZAPINE]
numeric.result: 97
--
molecule: Cl.Clc1ccc2nsnc2c1NC1=NCCN1 [TIZANIDINE HYDROCHLORIDE]
numeric.result: 96
--
molecule: CC[C@H]1OC(=O)[C@H](C)[C@@H](O[C@H]2C[C@@](C)(OC)[C@@H](O)[C@H](C)O2)[C@H](C)[C@@H](O[C@@H]2O[C@H](C)C[C@H](N(C)C)[C@H]2O)[C@@]2(C)CC(C)=C(O2)[C@H](C)[C@@H](O)[C@]1(C)O
numeric.result: 89
--
molecule: Cc1nc2ccc(Oc3ccc(F)cc3)cc2c(=O)n1C[C@H]1CCCN(C(C)C)C1.Cl
numeric.result: 88

###

Tested on: HEK-293T
Assay: Multiplex assay against HEK293T
Format: toxicity, cell-based
Details: human, 24 h, 10 µM, compound concentration 10 uM, replicate 2

molecule: CN(C)CCCc1cc(C(=O)Nc2ccc(-c3ccncc3)cc2)ccc1O.Cl.Cl
measurement.unit: %
Population Fragmented Nuclei (%): 15
--
molecule: COc1cc(NC(=O)CCN2CCC(OC(=O)Nc3ccccc3-c3ccccc3)CC2)c(Cl)cc1CNC[C@H](O)c1ccc(O)c2[nH]c(=O)ccc12 [BATEFENTEROL]
measurement.unit: %
Population Fragmented Nuclei (%): 6
--
molecule: O=C(NCCO)c1cccc(-c2cc(Nc3ccc(OC(F)(F)F)cc3)ncn2)c1
measurement.unit: %
Population Fragmented Nuclei (%): 6
--
molecule: CCOc1c2c(c(OCC)c3ncccc13)CN(c1ccc(CS(=O)(=O)NC(=O)Cc3ccccc3OC)cc1C)C2=O
measurement.unit: %
Population Fragmented Nuclei (%): 8

Taken from ChEMBL document CHEMBL5058577.
